target: HLA-A*30:01; assay: IEDB peptide-MHC binding, purified MHC/direct/fluorescence; filed as Kd, often an IC50 or EC50 that approximates it; bounds were set here for any values at or beyond the usual limits of such assays; details: source organism: Giardia lamblia ATCC 50803
pKd: −log10 of the molar value.
Readout Type: pKd

Entry under review: "SYPPPPASF" . Reported pKd?
≤ 4.35

====

Would you mind telling me the reported Kd of each entry?
molecular target: HLA-B*44:03; assay: IEDB peptide-MHC binding, purified MHC/competitive/radioactivity; filed as Kd, often an IC50 or EC50 that approximates it; bounds were set here for any values at or beyond the usual limits of such assays; settings: source organism: Dengue virus 2 Jamaica/1409/1983
Numbers only, in µM.

INSERT INTO results (biopolymer_sequence, study_system, observed_measurement) VALUES
  ('EEREIPERSW', 'HLA-B*44:03', 0.242),
  ('AELEDGAYRI', 'HLA-B*44:03', 0.0179),
  ('LELTDALAL', 'HLA-B*44:03', 1.96),
  ('VEPGQLKLNW', 'HLA-B*44:03', 0.0632);

So what does the record say about Kd for "AEAIFKLTY" ?
0.0347

====

molecular target: HLA-B*27:05; experiment: IEDB peptide-MHC binding, purified MHC/direct/fluorescence; filed as Kd, often an IC50 or EC50 that approximates it; bounds were set here for any values at or beyond the usual limits of such assays; conditions: source organism: dengue virus type 3
Readout Type: Kd

# lookup: Kd of "TSEHGGRAY"
≥ 20 µM

====

target: HLA-B*27:05; test: IEDB peptide-MHC binding, purified MHC/direct/fluorescence; filed as Kd, often an IC50 or EC50 that approximates it; bounds were set here for any values at or beyond the usual limits of such assays; conditions: source organism: West Nile virus
Readout Type: Kd

Which Kd reading was recorded for the sequence "VHREWFMDL" ?
≥ 20 µM

====

target: HLA-A*02:12; test: IEDB peptide-MHC binding, purified MHC/direct/fluorescence; filed as Kd, often an IC50 or EC50 that approximates it; bounds were set here for any values at or beyond the usual limits of such assays; conditions: source organism: Limestone Canyon virus
pKd: −log10 of the molar value.
Readout Type: pKd

Requested read-out: pKd. Entry: "SPVMGVIGF"
≤ 4.70

====

target: HLA-A*24:02; assay: IEDB peptide-MHC binding, purified MHC/competitive/radioactivity; filed as Kd, often an IC50 or EC50 that approximates it; bounds were set here for any values at or beyond the usual limits of such assays; details: source organism: Mammarenavirus juninense
Readout Type: Kd

Give the measured Kd of "RWTQSLRRGL" .
≥ 70.3 µM

====

biological target: HLA-B*15:01; assay: IEDB peptide-MHC binding, purified MHC/direct/fluorescence; filed as Kd, often an IC50 or EC50 that approximates it; bounds were set here for any values at or beyond the usual limits of such assays; conditions: source organism: Cryptosporidium parvum
Readout Type: pKd
One number for each entry, as −log10 of the molar value.

Request body: readout pKd, system HLA-B*15:01, query "ISCQIYNAL" . Return the value.
6.57

====

molecular target: HLA-B*08:01; experiment: IEDB peptide-MHC binding, purified MHC/competitive/fluorescence; bounds were set here for any values at or beyond the usual limits of such assays; settings: source organism: Homo sapiens
Task for the reader: assign each of the following sequences its reported IC50.

INSERT INTO results (biopolymer_sequence, observed_measurement) VALUES
  ('GSSDFQVHFLK', '≥ 20 µM');

Could you now look at the following sequence, please?
# IC50 lookup, item "KVADVDLAVPV"
≥ 20 µM
